A collection of compounds and their measured IC50
- System Tested: Human immunodeficiency virus type 1 integrase (Human immunodeficiency virus 1)
- Sequence (Q7ZJM1 whole entry): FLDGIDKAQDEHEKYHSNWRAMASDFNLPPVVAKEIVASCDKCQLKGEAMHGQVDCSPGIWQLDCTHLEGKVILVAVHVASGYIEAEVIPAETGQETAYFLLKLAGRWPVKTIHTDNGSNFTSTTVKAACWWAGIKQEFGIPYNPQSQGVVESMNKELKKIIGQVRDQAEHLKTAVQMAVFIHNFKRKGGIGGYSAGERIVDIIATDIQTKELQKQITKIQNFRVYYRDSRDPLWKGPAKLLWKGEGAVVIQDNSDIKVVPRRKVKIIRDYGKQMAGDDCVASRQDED
- Method Notes: Inhibition of HIV-1 subtype C integrase in presence of biotinylated DNA by colorimetric analysis
Measured Attribute: IC50 (µM)

Compound: O=C(O)CC(O)/C=N/c1cc(Cl)cc(Cl)c1O (stereo not drawn)
Quantity Unit: µM
Comparison Sign: >
Endpoint Value: 100
--
Compound: O=C(O)CC(O)/C=N/c1cc(Br)cc(Br)c1O (stereo not drawn)
Quantity Unit: µM
Comparison Sign: =
Endpoint Value: 26.4
--
Compound: O=C(O)CC(O)/C=N/c1ccccc1O (stereo not drawn)
Quantity Unit: µM
Comparison Sign: >
Endpoint Value: 100
--
Compound: O=C(O)CC(O)/C=N/c1cc(Cl)cc(Br)c1O (stereo not drawn)
Quantity Unit: µM
Comparison Sign: >
Endpoint Value: 100
--
Compound: O=C(O)CC(O)/C=N/c1ccc(O)c(O)c1O (stereo not drawn)
Quantity Unit: µM
Comparison Sign: =
Endpoint Value: 3.52
--
Compound: O=C(O)CC(O)/C=N/c1cccc(O)c1O (stereo not drawn)
Quantity Unit: µM
Comparison Sign: =
Endpoint Value: 53.2
--
Compound: O=C(O)CC(O)/C=N/c1cc([N+](=O)[O-])ccc1O (stereo not drawn)
Quantity Unit: µM
Comparison Sign: =
Endpoint Value: 65.1
--
Compound: O=C(O)CC(O)/C=N/c1ccc(O)c(O)c1 (stereo not drawn)
Quantity Unit: µM
Comparison Sign: =
Endpoint Value: 38.7

---

A collection of molecules and their measured CC50 at 48 h
- Method Notes: Cytotoxicity against HEK293 cells after 48 hrs by resazurin dye-based fluorescence assay
- Format: cell-based
- Condition Context: human

Molecule: O=C(O)CC(O)/C=N/c1cc(Cl)cc(Br)c1O (centres undefined)
Quantity Unit: µM
CC50 at 48 h: 109
--
Molecule: O=C(O)CC(O)/C=N/c1cc(Br)cc(Br)c1O (centres undefined)
Quantity Unit: µM
CC50 at 48 h: 104
--
Molecule: O=C(O)CC(O)/C=N/c1cc(Cl)cc(Cl)c1O (centres undefined)
Quantity Unit: µM
CC50 at 48 h: 101
--
Molecule: CC[C@H]1CN2CCc3cc(OC)c(OC)cc3[C@@H]2C[C@@H]1C[C@H]1NCCc2cc(OC)c(OC)cc21
Quantity Unit: µM
CC50 at 48 h: 0.071

# credit: ChEMBL document CHEMBL4219094
